Target: CYP2C9 (Homo sapiens (Human))
Sequence (P11712 whole entry): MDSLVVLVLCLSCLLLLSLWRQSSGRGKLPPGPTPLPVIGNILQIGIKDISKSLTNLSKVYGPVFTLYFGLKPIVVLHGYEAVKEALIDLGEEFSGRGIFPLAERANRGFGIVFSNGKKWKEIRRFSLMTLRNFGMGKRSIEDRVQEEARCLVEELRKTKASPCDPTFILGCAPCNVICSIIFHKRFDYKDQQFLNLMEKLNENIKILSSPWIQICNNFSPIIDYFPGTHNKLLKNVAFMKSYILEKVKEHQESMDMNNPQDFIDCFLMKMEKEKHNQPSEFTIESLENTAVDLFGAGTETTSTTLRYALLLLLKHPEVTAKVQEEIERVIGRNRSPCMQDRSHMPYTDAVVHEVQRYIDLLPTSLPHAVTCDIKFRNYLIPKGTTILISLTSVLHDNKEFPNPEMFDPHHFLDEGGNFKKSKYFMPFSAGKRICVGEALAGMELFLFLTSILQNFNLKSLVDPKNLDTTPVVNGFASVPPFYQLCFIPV
Experiment: Human Cytochrome P450 Inhibition Assay (Bactosomes)
Assay type: in vitro ADME
Conditions: recombinant Bactosomes, 10 minutes
Form field: pIC50 (one value per entry).
Quick note: pIC50 values are minus log10 of concentrations in mol/L.

Some solved cases for reference:
> print(dat)
                                   compound  recorded.value
1  CC(=O)N1CCC(CS(=O)(=O)c2ccc(-c3ccc(Cl)cc3C#N)cc2)CC1            4.37
2  CC1(O)CCC(NS(=O)(=O)c2ccc(-c3ncc(Cl)cc3C#N)cc2)CC1 (centres unmarked) [HMC-N-05-A, reference compound]            4.57
3  CC(=O)N1CCC(CS(=O)(=O)c2ccc(-c3ccc(C(F)(F)F)cc3F)cc2)CC1            4.71

Q) Check the records and state pIC50 for CC1(O)CCC(NS(=O)(=O)c2ccc(-c3ccc(C#N)cc3Cl)cc2)CC1 (centres unmarked) [HMC-C-09-A, reference compound]
A) 4.47

Q) Check the records and state pIC50 for `CC(=O)N1CCC(CS(=O)(=O)c2ccc(-c3ccc(F)cc3F)cc2C(F)(F)F)CC1`
A) 4.81

Q) Check the records and state pIC50 for CC1(O)CCC(NS(=O)(=O)c2ccc(-c3cc(F)c(F)cc3F)cc2)CC1 (centres unmarked) [HMC-C-10-B, reference compound]
A) 5.62

Hello, the source for this data is patent US12162836B2, in case you need it.
